# System: THRa:RXRa (NR concentration 90 nM, RXRa partner concentration 90 nM)
# Procedure summary: PBM binding z-score (relative to random genomic background probes); higher = stronger binding; sequences stand for … in GC…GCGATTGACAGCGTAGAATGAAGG
Would you kindly list PBM binding z-score for each of these sequences?
Answer as a number with no unit attached.

Q: Provide THRa:RXRa (NR concentration 90 nM, RXRa partner concentration 90 nM) PBM binding z-score reading for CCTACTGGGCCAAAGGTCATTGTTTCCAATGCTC .
A: 3.29

Q: Provide THRa:RXRa (NR concentration 90 nM, RXRa partner concentration 90 nM) PBM binding z-score reading for CAAACTAGGTCACGGAAGGTCAAAGTCGAATGAC .
A: 5.24

Q: Provide THRa:RXRa (NR concentration 90 nM, RXRa partner concentration 90 nM) PBM binding z-score reading for ACTATTTGTTGAGACGAGGGCAACCGATAGGTTG .
A: 1.21

Q: Provide THRa:RXRa (NR concentration 90 nM, RXRa partner concentration 90 nM) PBM binding z-score reading for ATCTCTAGGTAAAGAGAGTTCAGTGAATGCAAAT .
A: 1.56

Q: Provide THRa:RXRa (NR concentration 90 nM, RXRa partner concentration 90 nM) PBM binding z-score reading for CAAACTAGGTCAAGAGGTCAATGTCCGCTTCCCG .
A: 4.21

Q: Provide THRa:RXRa (NR concentration 90 nM, RXRa partner concentration 90 nM) PBM binding z-score reading for TCGAGTAGGTTAGTCGGGGCCTTCAGCCAACATA .
A: 1.57

Q: Provide THRa:RXRa (NR concentration 90 nM, RXRa partner concentration 90 nM) PBM binding z-score reading for TCTCGGAGGACACGAAAGGTCCGAGCTCGACATC .
A: 1.62

Q: Provide THRa:RXRa (NR concentration 90 nM, RXRa partner concentration 90 nM) PBM binding z-score reading for CCTACTGCGCCAAAAAGGTCATTGATGCCGATAA .
A: 3.04

Q: Provide THRa:RXRa (NR concentration 90 nM, RXRa partner concentration 90 nM) PBM binding z-score reading for CAAACTAGGTCAAGGTCAAACTCGGTTTGTGCCA .
A: 4.64

Q: Provide THRa:RXRa (NR concentration 90 nM, RXRa partner concentration 90 nM) PBM binding z-score reading for CGAACTAGGTCAAGGACGGTGAATCTCCGCACGC .
A: 2.88

Q: Provide THRa:RXRa (NR concentration 90 nM, RXRa partner concentration 90 nM) PBM binding z-score reading for CCAGACAGGTGAAAGGAAACTCAGTCTGGTACGC .
A: -0.104

Q: Provide THRa:RXRa (NR concentration 90 nM, RXRa partner concentration 90 nM) PBM binding z-score reading for TTACCAAGGGGAAAGGTCGTTGATGCACGCCTTG .
A: 1.4

----------
# Tested on: THRa homodimer (NR concentration 90 nM)
# Procedure summary: PBM binding z-score (relative to random genomic background probes); higher = stronger binding; sequences stand for … in GC…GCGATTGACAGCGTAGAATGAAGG
Measured metric: PBM binding z-score
Answer as a number with no unit attached.

Q: Give a short answer stating reported PBM binding z-score for CCTAGCAGGCCAGGGTCAGTCAAGCATTTCGCTT .
A: 0.116

Q: Give a short answer stating reported PBM binding z-score for GCTAGTTGGTCAGTAAAAGGACACACACCGGTCG .
A: 0.41

Q: Give a short answer stating reported PBM binding z-score for ACAGACAGGTGATGAAGCTAACTCAGGCTATCAT .
A: -0.032

Q: Give a short answer stating reported PBM binding z-score for TTACCAAGGTGAGCTGAGGTCGTTGACCCAACTC .
A: 2.16

Q: Give a short answer stating reported PBM binding z-score for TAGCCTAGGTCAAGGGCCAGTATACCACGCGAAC .
A: 0.832

Q: Give a short answer stating reported PBM binding z-score for CCGAGTGGGGCAAAGGTTACCATACTCAGTACGA .
A: -0.359

----------
# Test system: LXRb homodimer (NR concentration 270 nM)
# Procedure summary: PBM binding z-score (relative to random genomic background probes); higher = stronger binding; sequences stand for … in GC…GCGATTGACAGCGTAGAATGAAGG
Would you kindly list PBM binding z-score for each of these sequences?
Answer as a number with no unit attached.

Q: Give a short answer stating reported PBM binding z-score for TCATATAGGTAAATGCTAGGTGAATGTCCGATCT .
A: 0.0198

Q: Give a short answer stating reported PBM binding z-score for CGTCCAAGGTCAGAGAGGACAGTGAATGCCGAGT .
A: -0.021

Q: Give a short answer stating reported PBM binding z-score for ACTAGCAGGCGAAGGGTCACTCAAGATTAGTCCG .
A: -0.71

Q: Give a short answer stating reported PBM binding z-score for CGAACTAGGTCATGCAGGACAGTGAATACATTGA .
A: -0.2

Q: Give a short answer stating reported PBM binding z-score for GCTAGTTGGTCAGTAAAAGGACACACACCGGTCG .
A: -0.0401

Q: Give a short answer stating reported PBM binding z-score for CATACTGGGCCAAAGGTCATTGATTCCAATGCTC .
A: 1.29

Q: Give a short answer stating reported PBM binding z-score for CCTTACGGGTCACTCCAGGTGATAGCATCGGAGT .
A: -0.0681

Q: Give a short answer stating reported PBM binding z-score for CAGCCTAGGTCAGGGCCAGTATTGGAGGAACGTT .
A: -1.11

Q: Give a short answer stating reported PBM binding z-score for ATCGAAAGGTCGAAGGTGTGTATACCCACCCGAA .
A: 0.416

Q: Give a short answer stating reported PBM binding z-score for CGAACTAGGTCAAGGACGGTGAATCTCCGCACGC .
A: -0.582

Q: Give a short answer stating reported PBM binding z-score for CCTAATGGGCCACGAAAGGTCATTGATTCAGTGA .
A: 0.556

Q: Give a short answer stating reported PBM binding z-score for CAAACAAGGTCAAGAGGTCAAAGTCCGCTTCCCG .
A: 2.87

Q: Give a short answer stating reported PBM binding z-score for TCTAGTTGGTCAAGGAGGTCACACACGACGGGTA .
A: 0.53

Q: Give a short answer stating reported PBM binding z-score for CCGACTGGGGCATTAGGTTACCATAAGCCAGCCC .
A: -1.38

Q: Give a short answer stating reported PBM binding z-score for CCTACTGGGCCAAAAAGATCATTGATGCCGATAA .
A: -0.601

Q: Give a short answer stating reported PBM binding z-score for AGAACGAGGGCACGCTGAGTTGATAGCAGAGTAG .
A: -0.876

Q: Give a short answer stating reported PBM binding z-score for CAAACTACGTCACCGGAAGGTCAAAGTCCGCATG .
A: 1.01

Q: Give a short answer stating reported PBM binding z-score for CAGCCTAGGTCAGGGCCAGTTTAGGAGGAACGTT .
A: -1.02

Q: Give a short answer stating reported PBM binding z-score for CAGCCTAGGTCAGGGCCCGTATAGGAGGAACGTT .
A: -1.32

Q: Give a short answer stating reported PBM binding z-score for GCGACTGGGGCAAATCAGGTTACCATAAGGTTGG .
A: -0.654

Q: Give a short answer stating reported PBM binding z-score for CCTGCTAAGTCAATGGTCAGCTAAAGCAGCTCGC .
A: -0.617

Q: Give a short answer stating reported PBM binding z-score for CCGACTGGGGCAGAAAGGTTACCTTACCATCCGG .
A: -1.39

Q: Give a short answer stating reported PBM binding z-score for ATCTCTAGGTAACAAGCTCAGTGAAAGAGAGGAC .
A: 0.556

Q: Give a short answer stating reported PBM binding z-score for TCTTGTAGATCAAAGGTTAAGAAGGCCGAAGCCT .
A: -0.281

Q: Give a short answer stating reported PBM binding z-score for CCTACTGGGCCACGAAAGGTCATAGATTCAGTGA .
A: 0.194

Q: Give a short answer stating reported PBM binding z-score for CGTCCAAGGTCAAGGTCAGTCAAAGAGACTCGAA .
A: 1.09

----------
# System: VDR homodimer (NR concentration 270 nM)
# Procedure summary: PBM binding z-score (relative to random genomic background probes); higher = stronger binding; sequences stand for … in GC…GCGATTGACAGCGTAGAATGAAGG
Measured metric: PBM binding z-score
Answer as a number with no unit attached.

Q: Give a short answer stating reported PBM binding z-score for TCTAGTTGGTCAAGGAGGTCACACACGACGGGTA .
A: 2.71

Q: Give a short answer stating reported PBM binding z-score for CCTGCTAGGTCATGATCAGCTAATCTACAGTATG .
A: 0.00806

Q: Give a short answer stating reported PBM binding z-score for GCTTGTAGATCAAAGTTAAGAAAGACTAAGCTAA .
A: -0.623

Q: Give a short answer stating reported PBM binding z-score for CAAACTAGCTCACAGAGGTCAAAGTCCGTGCGTA .
A: 3.71

Q: Give a short answer stating reported PBM binding z-score for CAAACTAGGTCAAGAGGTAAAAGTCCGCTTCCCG .
A: 0.657

Q: Give a short answer stating reported PBM binding z-score for CGTCCAAGGTCAAAAGTCAGTGAAGAGATGACGG .
A: 1.86

Q: Give a short answer stating reported PBM binding z-score for TCTATTAGTTGACGGGCAACCGACGAGTCCGTTT .
A: 0.718

Q: Give a short answer stating reported PBM binding z-score for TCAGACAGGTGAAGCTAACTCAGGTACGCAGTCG .
A: -0.124

Q: Give a short answer stating reported PBM binding z-score for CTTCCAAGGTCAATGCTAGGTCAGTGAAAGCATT .
A: 2.95

Q: Give a short answer stating reported PBM binding z-score for TGGATGAGGTTAAAGATCAGGGAACGTGGCGTCG .
A: 1.42

Q: Give a short answer stating reported PBM binding z-score for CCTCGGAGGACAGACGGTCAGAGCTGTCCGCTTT .
A: -0.276

Q: Give a short answer stating reported PBM binding z-score for TCATATAGGTAACACAGGTGAAAGTCGGCATCTA .
A: 0.493

Q: Give a short answer stating reported PBM binding z-score for CCTTACGAGTCAAGGTTATAGCACGGGTGGTACG .
A: 0.529

Q: Give a short answer stating reported PBM binding z-score for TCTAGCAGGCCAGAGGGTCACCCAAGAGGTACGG .
A: 0.203

Q: Give a short answer stating reported PBM binding z-score for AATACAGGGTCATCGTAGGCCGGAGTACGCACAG .
A: 3.63

Q: Give a short answer stating reported PBM binding z-score for GCTAGCAGGCCATTTGGGTCTCTCAATGACGGGC .
A: -0.774

Q: Give a short answer stating reported PBM binding z-score for CGTCCAAGGTCGGCAGGTCAGTGAAAGCGACGTG .
A: 0.171

Q: Give a short answer stating reported PBM binding z-score for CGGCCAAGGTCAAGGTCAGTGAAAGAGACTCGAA .
A: 2.95

Q: Give a short answer stating reported PBM binding z-score for ATCTCTAGGTAAGACTCAGCTCAGTGAAGAACGC .
A: 0.3

Q: Give a short answer stating reported PBM binding z-score for CCTAGCAGGCCAAGGTCACTCAAGCATTTCGCTT .
A: 2.2

Q: Give a short answer stating reported PBM binding z-score for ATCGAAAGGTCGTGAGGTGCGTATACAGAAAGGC .
A: 1.59

Q: Give a short answer stating reported PBM binding z-score for TAGCCTAGGTCATGGGCCAGTACACCACGCGAAC .
A: 0.985

Q: Give a short answer stating reported PBM binding z-score for CGTCAAAGTTCAAGGTAACGTGACAGAAAGCAGC .
A: 3.04

Q: Give a short answer stating reported PBM binding z-score for GTTCGGAGGACAAGGTCAGAGCTTTGTCCGTAGA .
A: 0.65

Q: Give a short answer stating reported PBM binding z-score for CGTCAAAGTTCAACTAAGGTAGCGTAAAGCACGC .
A: 4.01

Q: Give a short answer stating reported PBM binding z-score for GCTATTAGTGGAAAGGGCAACCGAATGATTCTCG .
A: -0.143
